Values were extracted from PubChem BioAssay (NCI).

# Test system: MDA-MB-231 breast
# assay-summary: NCI tumour cell line growth inhibition, 48 h
measurement-label: GI50

* CCCCC(=O)N/N=C/c1c(O)ccc2ccccc12 | 3.51 µM

Input: Lab note: need GI50 with MDA-MB-231 breast for entry "CCCCNC(=O)Oc1ccc(/C(=C(/C)Cc2ccc(OC)cc2)c2ccc(OCCN3CCCC3)cc2)cc1" , please look it up.
Output: 1.87 µM

Input: Can you look up GI50 on MDA-MB-231 breast for "CCc1cc2ncc(CN3CCN(c4ccc(C(=O)NC)nc4)CC3)cc2[nH]c1=O" ?
Output: 82 µM

Input: Missing value: GI50, MDA-MB-231 breast, entry "O=C1Nc2ccccc2/C1=C\c1nc(C2CCN(S(=O)(=O)c3ccc(F)cc3)CC2)n2ccccc12" . Fill in?
Output: 2.9 µM

Input: Please provide the recorded GI50 for "N=C(N)c1ccc(-c2ccc(-c3cccs3)s2)s1" , tested on MDA-MB-231 breast.
Output: 1.5 µM

Input: Give the reported GI50 for Nc1nc(N)c2c(n1)NC(c1ccccc1)C1CCc3ccccc3C1=N2 (stereo unspecified) (system: MDA-MB-231 breast).
Output: 6.02 µM

---

# Tested on: LOX IMVI melanoma
# assay-summary: NCI tumour cell line growth inhibition, 48 h
Documented TGI across a set of compounds

Consider the worked cases shown below.
* O=S1(=O)CCCS(=O)(=O)C(c2ccccc2)=C1c1ccccc1 | > 100 µM
* O=C(NC(Nc1ccc(F)cc1)(C(F)(F)F)C(F)(F)F)C(C(F)(F)F)C(F)(F)F | > 100 µM
* Cc1nn2c(C(=O)N/N=C/c3ccc([N+](=O)[O-])cc3)c(C)nc2s1 | > 100 µM
* CC1Cc2cc(O)c(O)cc2-c2cc(O)c(O)cc2CC1C (stereo not drawn) | 23.1 µM
* Cc1nc2ccc(NC3OC(CO)C(O)C(O)C3O)cc2c(=O)n1-c1ccccc1 (stereo not drawn) | > 100 µM

Input: Write down the reported TGI of "COc1ccc2c(c1)CCCN2S(=O)(=O)c1ccccc1[N+](=O)[O-]" , test system: LOX IMVI melanoma.
Output: > 88.6 µM

Input: Item: "C/C(=N\NC(=S)N1CC2CCC(CC2)C1)c1cccc(C)n1" Test system: LOX IMVI melanoma Read-out: TGI Value: ?
Output: 8.16 µM

Input: Fill in the recorded TGI for this compound, with LOX IMVI melanoma as test system: Nc1nc(N)c2c(n1)NC(c1ccccc1)C1CCc3ccccc3C1=N2 (stereo not drawn)
Output: 15.1 µM

---

# Test system: SK-MEL-2 melanoma
# assay-summary: NCI tumour cell line growth inhibition, 48 h
The entries below come with measured TGI values attached.

Examples from the recorded data:
- CC1(C)C=N[N+]2(C)C3C=CC(CC3)C12 (configuration not stated): > 100 µM
- N#Cc1nc(-c2ccccn2)oc1N: > 100 µM

Input: Can you share its TGI? I mean this compound: "O=C(Nc1cc(Cl)cc(Cl)c1)/C(Cc1nc2ccccc2[nH]c1=O)=N/NC(=O)c1ccncc1"
Output: > 100 µM

Input: What value of TGI has been recorded for this entry: "CC(C)(C)OC/C=C1\C(=O)O[C@H]2C[C@@H](O[Si](C)(C)C(C)(C)C)C[C@@H]12"
Output: > 100 µM

Input: Using the record for "CCCCOCc1cc(CN2CCN(C)CC2)c(O)c2ncccc12" , report its TGI.
Output: > 100 µM

Input: # get_value(readout='TGI', item= "O=C(CN1CCOCC1)c1ccc2c(c1)oc(=O)n2CCN1CCCC1" )
Output: > 100 µM

Input: Give its TGI value. Item: "CCOC(=O)c1oc2ccc([N+](=O)[O-])c3c2c1CCC3"
Output: > 100 µM

Input: Form field: reported TGI of "C/C(=N\NC(=S)N1CC2CCC(CC2)C1)c1cccc(C)n1"
Output: 21.4 µM

Input: Item under review: "CCC(=O)Nc1ccccc1C#C/C=C\C#Cc1ccccc1C(F)(F)F" . Reported TGI?
Output: > 11.1 µM

Input: Dear colleague, I am looking for the recorded TGI of the following compound: "C/C(=N\N=C(\[Se])N(C)C)c1ccccn1"
Output: 12.9 µM

Input: # input compound: "[O-][N+]1=NC(c2ccccc2)=C1c1ccccc1" ; wanted: its TGI
Output: > 50 µM

Input: I would be grateful if you could share the reported TGI for CCCCN[C@H]1C2C3CC4C5CC(C42)C1(C)C53 (some centres not stated) .
Output: > 100 µM

Input: Please look up its TGI: "O=[N+]([O-])/C(C(Cl)=C(Cl)Cl)=C(\Nc1ccccc1)n1nnc2ccccc21"
Output: 75.2 µM

Input: Name the reported TGI value associated with the compound "Cc1c(N/C=C(\C#N)C(=O)c2ccc(Cl)cc2)c(=O)n(-c2ccccc2)n1C"
Output: > 100 µM

Input: Quick one: TGI for O=C(CC(=O)N1N=C(N(c2ccccc2)c2ccccc2)CC1c1ccccc1)Nc1ccc(Cl)cc1 (configuration not stated) ?
Output: > 100 µM

Input: Quick one: TGI for COC(=O)[C@@H](Cc1ccccc1)N1O[C@]12CCCC[C@@H]2NC(=O)OC(C)(C)C (some centres not stated) ?
Output: 49 µM

Input: Given the entry "CCCNC(=O)c1ccc(Cl)cc1Cl" , report its measured TGI.
Output: > 100 µM

Input: Given the entry "C[n+]1c(-c2ccc(/C=N/NC(=O)c3ccc(C(=O)N/N=C/c4ccc(-c5cn6ccccc6[n+]5C)cc4)cc3)cc2)cn2ccccc21" , report its measured TGI.
Output: 498 µM

Input: Can you share its TGI? I mean this compound: "CN(C)S(=O)(=O)n1cnc(CO)c1"
Output: > 100 µM

Input: Any idea what TGI was measured for "Cc1cc(C(=O)O)c(C)n1-c1cccc(C(=O)O)c1" ?
Output: > 100 µM

Input: Consider the compound shown here: "CCOC(=O)c1c(-c2ccc(Br)cc2)ccn1C" What is its recorded TGI?
Output: > 10 µM

Input: Fill in: TGI of CC1Cc2cc(O)c(O)cc2-c2cc(O)c(O)cc2CC1C (configuration not stated) is ___
Output: 15 µM

---

# Tested on: SF-295 CNS
# assay-summary: NCI tumour cell line growth inhibition, 48 h
Quick reference: TGI of the listed items.

- COc1cc(N2CCN(C(C)C)CC2)ccc1Nc1nc(Nc2cccc(F)c2C(=O)O)c2cc[nH]c2n1: > 25 µM
- OCCNCCCOc1ccc2ncnc(Nc3ccc(Oc4cccc(C(F)(F)F)c4)c(Cl)c3)c2c1: 3.24 µM
- N#Cc1nc(-c2ccccn2)oc1N: > 100 µM
- Clc1ccc(-c2ccc(-c3nnc(COc4ccc(OCc5nnc(-c6ccc(-c7ccc(Cl)cc7Cl)o6)o5)c(Cl)c4)o3)o2)c(Cl)c1: > 100 µM
- CN(C)C=NCCN1CCOCC1: > 100 µM

Input: Request the reported TGI associated with COc1cc(C2C3=C(COC3=O)Nc3c2ccc2c3CCCC2)cc2c1OCO2 (stereo unspecified)
Output: 35.5 µM

Input: Which TGI is reported for this compound? "COc1cc([C@@]23OC[C@@H]4[C@@H](OC[C@@H]42)c2cc4c(cc23)OCO4)cc(OC)c1OC"
Output: > 100 µM

Input: Item under review: "O=C(O)C1(Cc2ccc3c(c2)CCC3)Cc2ccccc2C1" . Reported TGI?
Output: > 100 µM

Input: Report TGI for "Cc1ccc(C(O)(c2ccc(C)cc2)c2ccccn2)cc1" please.
Output: > 100 µM

Input: Record request: TGI value, item "O=c1c2cc(Cl)ccc2[nH]c2cc(O)cc(O)c12"
Output: > 10 µM

Input: Look up TGI for this compound: "O=c1c(NO)c([N+](=O)[O-])cnn1-c1ccccc1"
Output: 27 µM

---

# System: NCI-H23 lung
# assay-summary: NCI tumour cell line growth inhibition, 48 h
measurement-label: GI50

Worked set:
- C[C@]1(Cn2ccnn2)C(C(=O)O)N2C(=O)CC2S1(=O)=O (some centres undefined): > 100 µM
- C[C@]12CC[C@H]3[C@@H](C[C@@H]4SC(Nc5ccccc5)=N[C@@]45CC(O)CC[C@]35C)[C@@H]1CCC2O (some centres undefined): 2.03 µM
- COc1ccc(/C=C2\CN(Cc3cn(CCNc4ccnc5cc(Cl)ccc45)nn3)C/C(=C\c3ccc(OC)c(OC)c3)C2=O)cc1OC: 7.45 µM

Kindly review the next compound as well.
Input: Requested field: GI50. Item: "C/C=C/[C@H]1O[C@@H]2C(=C[C@H]1O)C(=O)O[C@H]2C"
Output: 16.4 µM

---

# Test system: SF-295 CNS
# assay-summary: NCI tumour cell line growth inhibition, 48 h
The molecules listed here are annotated with their TGI.
Expressed in µM, but write only the number.

* CC(C)(C)OC(=O)C1=C2C=C(O)C=CC2(C)N(Cc2ccccc2)C1=N (stereo not given) | 28.2
* COc1ccc(-c2cc(-c3cc(Cl)cc(Br)c3O)[nH]c(=O)n2)cc1 | 32.7

Next item in the queue.
Input: Could you share which TGI value was measured for "COc1cc(Nc2nnc3n2S(=O)(=O)c2cc(C)c(Cl)cc2S3)cc(OC)c1" ?
Output: 68.7
